# Target Or System: T1, 1xMBD-GFP (UniProt Q9Z2E2 1-75)
# T1 sequence: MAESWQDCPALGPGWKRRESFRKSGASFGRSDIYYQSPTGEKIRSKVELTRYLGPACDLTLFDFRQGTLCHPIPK
# Method Summary: SPR
pKd: −log10 of the molar value.
Output condition met for pKd not less than 5; output condition not met otherwise.

Problem: Could you please find out whether m_o_o*/m_o_m (dsDNA, strand 1 5mC9; strand 2 5mC5,5mC17) DNA 1: GTAGTTTGCGGTCCGCTGCCCGACC DNA 2: GGGTCGGGCAGCGGACCGCAAA has pKd that meets 5 or exceeds it?
Result: condition met

Problem: Could you please find out whether m_o_o/o_o_o (dsDNA, strand 1 5mC5) DNA 1: TTTGCGGTCCGCTGCCCGACCC DNA 2: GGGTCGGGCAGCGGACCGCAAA has pKd that meets 5 or exceeds it?
Result: condition not met

Problem: Could you please find out whether m_o_o_o/o_o_m_o (dsDNA, strand 1 5mC14; strand 2 5mC14) DNA 1: GAAGTCAACAGGACGGACGCCGCGCAA DNA 2: CTCTTTCTTTGCGCGGCGTCCGTCCTGTTGACTTCCTCT has pKd that meets 5 or exceeds it?
Result: condition met

Problem: Could you please find out whether o_o_o_o/o_m_m_o (dsDNA, strand 2 5mC14,5mC17) DNA 1: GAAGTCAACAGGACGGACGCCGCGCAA DNA 2: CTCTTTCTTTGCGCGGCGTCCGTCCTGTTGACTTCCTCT has pKd that meets 5 or exceeds it?
Result: condition met

Problem: Could you please find out whether o_m_m/o_o_o (dsDNA, strand 1 5mC10,5mC17) DNA 1: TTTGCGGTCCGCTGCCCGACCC DNA 2: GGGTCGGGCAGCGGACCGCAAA has pKd that meets 5 or exceeds it?
Result: condition met

In the following, a different binder is considered.
Problem: Could you please find out whether m_o_o*/o_m_m (dsDNA, strand 1 5mC9; strand 2 5mC5,5mC12) DNA 1: GTAGTTTGCGGTCCGCTGCCCGACC DNA 2: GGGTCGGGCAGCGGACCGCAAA has pKd that meets 5 or exceeds it?
Result: condition met
